# credit: ChEMBL document CHEMBL4196210

- TARGET OR TEST SYSTEM: Trypsin (Homo sapiens, UniProt P07477+P07478+P35030)
- ASSAY INFO: Inhibition of trypsin (unknown origin) pre-incubated for 30 mins before N-Boc-FSR-AMC substrate addition and measured after 30 mins
- Type: protein assay
PROPERTY NAME: IC50

Cc1nn(-c2ccccc2)c(C)c1NC(=O)COC(=O)Cc1c(C)[nH]c2ncccc12	> 200 µM
Cc1nn(-c2ccccc2)c(C)c1NC(=O)COC(=O)CCc1c(C)[nH]c2ccccc12	> 200 µM
Cc1nn(-c2ccccc2)c(C)c1NC(=O)COC(=O)Cn1c(C)csc1=O	> 200 µM
C#Cc1ccc2c(CC(=O)OCC(=O)Nc3c(C)nn(-c4ccccc4)c3C)c(C)[nH]c2c1	24 µM
Cc1nn(-c2ccccc2)c(C)c1NC(=O)COC(=O)Cc1c(C(C)C)[nH]c2ccccc12	> 200 µM

// IC50 (Trypsin (Homo sapiens, UniProt P07477+P07478+P35030)) for `Cc1nn(-c2ccccc2)c(C)c1NC(=O)COC(=O)Cc1c(C)[nH]c2ccncc12` = 25 µM

====

Here we list compounds with their recorded IC50 when tested on UniProt P00742.
Sequence (P00742 41-179 limits assumed): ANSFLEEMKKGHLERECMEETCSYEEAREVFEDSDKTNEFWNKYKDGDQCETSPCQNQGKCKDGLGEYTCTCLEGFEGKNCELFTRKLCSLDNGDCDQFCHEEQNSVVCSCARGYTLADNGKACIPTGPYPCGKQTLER
Sequence (P00742 235-488 limits assumed): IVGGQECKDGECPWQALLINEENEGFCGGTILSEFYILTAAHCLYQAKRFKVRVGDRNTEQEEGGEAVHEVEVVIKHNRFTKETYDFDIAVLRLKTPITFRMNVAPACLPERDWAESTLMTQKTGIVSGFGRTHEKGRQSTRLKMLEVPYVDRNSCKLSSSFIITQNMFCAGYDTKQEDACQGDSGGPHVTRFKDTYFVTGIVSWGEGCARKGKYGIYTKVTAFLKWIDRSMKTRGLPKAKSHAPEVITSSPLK

Cc1nn(-c2ccccc2)c(C)c1NC(=O)COC(=O)Cc1ccccc1	> 200 µM

Now turn to the next compound.
Entry `Cc1nn(-c2ccccc2)c(C)c1NC(=O)COC(=O)Cn1c(C)cc2ccccc21` : IC50 on UniProt P00742 = > 200 µM

====

- TARGET OR TEST SYSTEM: Kallikrein-14 (Homo sapiens, UniProt Q9P0G3)
- Sequence (Q9P0G3 17-267): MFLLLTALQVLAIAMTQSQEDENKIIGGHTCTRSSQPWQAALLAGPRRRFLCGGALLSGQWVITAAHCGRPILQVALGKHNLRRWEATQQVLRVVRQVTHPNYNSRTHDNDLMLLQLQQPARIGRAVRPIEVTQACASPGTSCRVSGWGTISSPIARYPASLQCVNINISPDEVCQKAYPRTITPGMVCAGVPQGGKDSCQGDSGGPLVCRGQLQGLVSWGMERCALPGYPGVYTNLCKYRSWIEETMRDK
PROPERTY NAME: pIC50
The quantity pIC50 is defined as the negative base-10 logarithm of the molar concentration.

# pIC50 (compound: `Cc1nn(-c2ccccc2)c(C)c1NC(=O)COC(=O)Cc1c(C)[nH]c2cc(C(=N)N)ccc12` ) is 8.10

====

- ASSAY INFO: Stability in DMEM supplemented with 10% (v/v) fetal bovine serum at 10 uM at 37 degC assessed as half life by HPLC-MS method
- Format: physicochemical
- RUN CONDITIONS: cattle, DMEM with 10% (v/v) fetal bovine serum
In plain terms, low half-life at 10 µM, meaning strictly below 2 h, gives label 1, and everything else gives label 0.

Cc1nn(-c2ccccc2)c(C)c1NC(=O)COC(=O)Cn1c(C)cc2ccccc21	label 1

Identify whether the compound Cc1nn(-c2ccccc2)c(C)c1NC(=O)C(OC(=O)Cc1c(C)[nH]c2ccccc12)C(F)(F)F (configuration not stated) records half-life at 10 µM below 2 h.
label 1

State whether 2 h exceeds half-life at 10 µM recorded for `Cc1nn(-c2ccccc2)c(C)c1NC(=O)COC(=O)Cc1c[nH]c2ccccc12` .
label 1

Does Cc1nn(-c2ccccc2)c(C)c1NC(=O)COC(=O)C(C)c1c(C)[nH]c2ccccc12 (configuration not stated) have half-life at 10 µM strictly under 2 h?
label 0

====

Here's a batch of compounds along with measured pIC50 for UniProt:P00734.
pIC50: −log10 of the molar value.

Cc1nn(-c2ccccc2)c(C)c1NC(=O)COC(=O)Cc1ccccc1	< 3.70
Cc1nn(-c2ccccc2)c(C)c1NC(=O)COC(=O)Cn1cnc2ccccc2c1=O	< 3.70
Cc1nn(-c2ccccc2)c(C)c1NC(=O)COC(=O)Cn1c(=O)oc2ccccc21	< 3.70

pIC50 of `NCc1ccc(NC(=O)c2c([O-])ccc[n+]2Cc2nccn2Cc2ccccc2)cc1` , assay on UniProt:P00734, is < 4.30

====

- TARGET OR TEST SYSTEM: Trypsin (Homo sapiens, UniProt P07477+P07478+P35030)
- ASSAY INFO: Inhibition of trypsin (unknown origin) pre-incubated for 30 mins before N-Boc-FSR-AMC substrate addition and measured after 30 mins
- Type: protein assay
PROPERTY NAME: IC50 (µM)
Use µM as the unit, but write only the number.

Cc1nn(-c2ccccc2)c(C)c1NC(=O)COC(=O)Cc1c(C)[nH]c2ccc(C(=N)N)cc12	19
Cc1nn(-c2ccccc2)c(C)c1NC(=O)COC(=O)Cc1c(C)[nH]c2cnccc12	0.33
Cc1nn(-c2ccccc2)c(C)c1NC(=O)C(OC(=O)C(C)c1c(C)[nH]c2ccccc12)C(F)(F)F (centres undefined)	61

// `Cc1[nH]c2cccnc2c1CC(=O)NCC(=O)Nc1onc(-c2ccccc2)c1C` : IC50 value = 50

Reported IC50 for `Cc1nn(-c2ccccc2)c(C)c1NC(=O)COC(=O)Cc1c(C)[nH]c2ccccc12` was 21

Just so you know, measured IC50 for `C#Cc1ccc2[nH]c(C)c(CC(=O)OCC(=O)Nc3c(C)nn(-c4ccccc4)c3C)c2c1` came out at 26

====

- TARGET OR TEST SYSTEM: UniProt Q9Y337
- Sequence (Q9Y337 whole entry): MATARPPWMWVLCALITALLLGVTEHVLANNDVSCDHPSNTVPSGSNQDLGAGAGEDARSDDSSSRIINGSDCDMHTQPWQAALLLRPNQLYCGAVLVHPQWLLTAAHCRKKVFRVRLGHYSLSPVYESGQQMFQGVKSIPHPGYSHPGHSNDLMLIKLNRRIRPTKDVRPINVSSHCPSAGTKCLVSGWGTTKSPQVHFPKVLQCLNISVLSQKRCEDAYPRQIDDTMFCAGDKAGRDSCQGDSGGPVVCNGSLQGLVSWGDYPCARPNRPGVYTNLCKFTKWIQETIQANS
PROPERTY NAME: IC50 (nM)
Give a bare numeral; the unit nM is implied.

Entry `Cc1nn(-c2ccccc2)c(C)c1NC(=O)COC(=O)Cc1c(C)[nH]c2ccccc12` ; IC50 = 1100

====

Each record here notes measured IC50.
- TARGET OR TEST SYSTEM: Trypsin (Homo sapiens, UniProt P07477+P07478+P35030)
- ASSAY INFO: Inhibition of trypsin (unknown origin) pre-incubated for 30 mins before N-Boc-FSR-AMC substrate addition and measured after 30 mins
- Assay type: protein assay

C#Cc1cccc2[nH]c(C)c(CC(=O)OCC(=O)Nc3c(C)nn(-c4ccccc4)c3C)c12	> 50 µM
Cc1nn(-c2ccccc2)c(C)c1NC(=O)COC(=O)Cn1c(=O)oc2ccccc21	190 µM

Reported IC50 ( `NCc1ccc(NC(=O)c2c([O-])ccc[n+]2Cc2nccn2Cc2ccccc2)cc1` ) = 0.18 µM

`Cc1nn(-c2ccccc2)c(C)c1NC(=O)COC(=O)Cc1c(C)n(C)c2ccccc12` yielded IC50 of > 200 µM

Quick note, IC50 for `Cc1[nH]c2ccccc2c1CC(=O)OCC(=O)Nc1cncnc1` landed at > 200 µM

Form field IC50, entry `Cc1[nH]c2ccccc2c1CC(=O)NCC(=O)Nc1cnn(-c2ccccc2)c1C` : 34 µM

Record summary for `Cc1nn(-c2ccccc2)c(C)c1NC(=O)COC(=O)Cc1c(C)[nH]c2cc(C(=N)N)ccc12` : reported IC50 = < 0.001 µM

====

half-life at 10 µM values for the compounds below.
- ASSAY INFO: Stability in DMEM supplemented with 10% (v/v) fetal bovine serum at 10 uM at 37 degC assessed as half life by HPLC-MS method
- Format: physicochemical
- RUN CONDITIONS: cattle, DMEM with 10% (v/v) fetal bovine serum
Quick reminder: number only, in h, skip the unit.

Quick note, half-life at 10 µM for `Cc1nn(-c2ccccc2)c(C)c1NC(=O)COC(=O)Cc1c(C)[nH]c2ccccc12` landed at 4.22

half-life at 10 µM reported for this compound Cc1nn(-c2ccccc2)c(C)c1NC(=O)C(OC(=O)C(C)c1c(C)[nH]c2ccccc12)C(F)(F)F (stereo not drawn) : 1.68

Summary for this compound, `Cc1nn(-c2ccccc2)c(C)c1NC(=O)COC(=O)Cc1c(C)[nH]c2cc(C(=N)N)ccc12` : half-life at 10 µM is 1.32

====

- TARGET OR TEST SYSTEM: Trypsin (Homo sapiens, UniProt P07477+P07478+P35030)
- ASSAY INFO: Inhibition of trypsin (unknown origin) pre-incubated for 30 mins before N-Boc-FSR-AMC substrate addition and measured after 30 mins
- Format: protein assay
PROPERTY NAME: IC50

Consider the worked cases shown below.
C#Cc1[nH]c2ccccc2c1CC(=O)OCC(=O)Nc1c(C)nn(-c2ccccc2)c1C	> 200 µM
Cc1nn(C)c(C)c1NC(=O)CNC(=O)Cc1c(C)[nH]c2cccnc12	> 50 µM

So for `Cc1nn(-c2ccccc2)c(C)c1NC(=O)CCOC(=O)Cc1c(C)[nH]c2ccccc12` , the logged IC50 turned out to be > 200 µM

====

- TARGET OR TEST SYSTEM: Trypsin (Homo sapiens, UniProt P07477+P07478+P35030)
- ASSAY INFO: Inhibition of trypsin (unknown origin) pre-incubated for 30 mins before N-Boc-FSR-AMC substrate addition and measured after 30 mins
- Assay type: protein assay
Attribute: IC50

Solved entries:
Cc1nn(-c2ccccc2)c(C)c1NC(=O)COC(=O)Cc1ccccc1	> 200 µM
Cc1[nH]c2ccccc2c1CC(=O)OCC(=O)Nc1ccc(N2CCOCC2)cc1	> 200 µM
Cc1nn(-c2ccccc2)c(C)c1NC(=O)COC(=O)Cn1c(C)cc2ccccc21	38 to 70 µM

Sample `Cc1nn(-c2ccccc2)c(C)c1NC(=O)CNC(=O)Cc1c(C)[nH]c2cc(C(=N)N)ccc12` , system: Trypsin (Homo sapiens, UniProt P07477+P07478+P35030). Its IC50 is 2.5 µM

Param item: `Cc1nn(-c2ccccc2)c(C)c1NC(=O)COC(=O)Cc1c(C)[nH]c2cccnc12` ; param system: Trypsin (Homo sapiens, UniProt P07477+P07478+P35030); output IC50: 61 µM

`Cc1nn(-c2ccccc2)c(C)c1NC(=O)COC(=O)Cn1cnc2ccccc2c1=O` tested on Trypsin (Homo sapiens, UniProt P07477+P07478+P35030) gave IC50: > 200 µM

So the reported IC50 for `Cc1nn(-c2ccccc2)c(C)c1NC(=O)COC(=O)c1c(C)[nH]c2ccccc12` , on Trypsin (Homo sapiens, UniProt P07477+P07478+P35030), turned out to be > 200 µM

Summary line: `Cc1nn(-c2ccccc2)c(C)c1NC(=O)COC(=O)C(C)(C)c1c(C)[nH]c2ccccc12` , Trypsin (Homo sapiens, UniProt P07477+P07478+P35030), reported IC50 = > 200 µM

Readout IC50 for Cc1nn(-c2ccccc2)c(C)c1NC(=O)C(NC(=O)Cc1c(C)[nH]c2ccccc12)C(F)(F)F (configuration not stated) , test system Trypsin (Homo sapiens, UniProt P07477+P07478+P35030), was > 200 µM

Response field IC50 (Trypsin (Homo sapiens, UniProt P07477+P07478+P35030)) for item `Cc1nn(-c2ccccc2)c(C)c1NC(=O)COC(=O)Cc1c(C)[nH]c2ccc(Cl)cc12` : 34 µM
